Target: SERCA2a (Cavia porcellus, UniProt A0A286XD73)
Sequence (A0A286XD73 1-997): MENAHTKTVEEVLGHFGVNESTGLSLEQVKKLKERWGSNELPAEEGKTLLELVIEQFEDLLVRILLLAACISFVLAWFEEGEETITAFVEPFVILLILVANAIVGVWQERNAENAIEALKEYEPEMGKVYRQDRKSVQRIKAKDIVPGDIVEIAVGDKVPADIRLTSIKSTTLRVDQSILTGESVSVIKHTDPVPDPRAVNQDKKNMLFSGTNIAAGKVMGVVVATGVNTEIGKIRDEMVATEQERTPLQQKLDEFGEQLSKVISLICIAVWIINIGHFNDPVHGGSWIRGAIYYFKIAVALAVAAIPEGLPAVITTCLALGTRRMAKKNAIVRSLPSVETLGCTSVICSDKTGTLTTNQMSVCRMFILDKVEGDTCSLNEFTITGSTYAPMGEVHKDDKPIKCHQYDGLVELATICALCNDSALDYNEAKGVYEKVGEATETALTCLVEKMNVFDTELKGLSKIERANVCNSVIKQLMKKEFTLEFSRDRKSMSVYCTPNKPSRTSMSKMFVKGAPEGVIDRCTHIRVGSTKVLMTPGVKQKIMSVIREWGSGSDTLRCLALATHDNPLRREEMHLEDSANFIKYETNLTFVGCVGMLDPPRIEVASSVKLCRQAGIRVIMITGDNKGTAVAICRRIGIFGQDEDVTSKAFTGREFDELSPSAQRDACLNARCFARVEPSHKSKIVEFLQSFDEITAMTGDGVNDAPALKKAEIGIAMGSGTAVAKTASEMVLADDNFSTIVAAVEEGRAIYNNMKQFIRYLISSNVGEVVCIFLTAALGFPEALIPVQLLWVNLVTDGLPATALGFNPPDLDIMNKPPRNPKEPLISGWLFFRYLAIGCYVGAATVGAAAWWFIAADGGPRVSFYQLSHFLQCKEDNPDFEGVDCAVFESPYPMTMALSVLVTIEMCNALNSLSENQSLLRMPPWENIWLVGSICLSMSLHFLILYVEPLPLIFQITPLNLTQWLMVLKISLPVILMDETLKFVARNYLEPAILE
Assay: SERCA2a ATPase activity in heart-derived SR microsomes from normal guinea-pig
Format: biochemical
Settings: compound 100 nM
Below is a list of entries, each paired with its recorded % change in Ca2+ Kd vs control (negative = decrease) value.
readout.type: % change in Ca2+ Kd vs control (negative = decrease) (%*)

>  <compound>
C[C@]12CC/C(=C\CCC(=O)O)CC1[C@H](O)C[C@@H]1[C@@H]2CC[C@]2(C)C(=O)CC[C@@H]12 (stereo partly shown) [CVie203]

>  <target.or.system>
SERCA2a (Cavia porcellus, UniProt A0A286XD73)

>  <scale.unit>
%*

>  <quantitative.readout>
−15

$$$$
>  <compound>
CCOC(=O)CCC[C@H]1CC[C@]2(C)C3CC[C@]4(C)C(=O)CCC4C3C[C@H](O)C2C1 (stereo partly shown) [CVie217]

>  <target.or.system>
SERCA2a (Cavia porcellus, UniProt A0A286XD73)

>  <scale.unit>
%*

>  <quantitative.readout>
−20

$$$$
>  <compound>
C[C@]12CC[C@H](CCC3CCNCC3)CC1[C@@H](O)C[C@@H]1[C@@H]2CC[C@]2(C)C(=O)CC[C@@H]12 (stereo partly shown) [CVie212]

>  <target.or.system>
SERCA2a (Cavia porcellus, UniProt A0A286XD73)

>  <scale.unit>
%*

>  <quantitative.readout>
−20.2

$$$$
>  <compound>
C[C@]12CC/C(=C\CC3CNC3)CC1[C@@H](O)C[C@@H]1[C@@H]2CC[C@]2(C)C(=O)CC[C@@H]12 (stereo partly shown) [CVie205]

>  <target.or.system>
SERCA2a (Cavia porcellus, UniProt A0A286XD73)

>  <scale.unit>
%*

>  <quantitative.readout>
−16.7

$$$$
